experimental system: Serine/threonine-protein kinase mTOR (Homo sapiens, UniProt P42345)
assay method text: Inhibition of mTOR
pIC50: −log10 of the molar value.
Please provide measured pIC50 for the entries that follow.

Go through the list and state pIC50 for each entry.
1. NS(=O)(=O)c1ccc(Nc2nccc(-c3ccnc(N4CCOCC4)c3)n2)cc1
2. Clc1cccc(Nc2nccc(-c3ccnc(N4CCOCC4)c3)n2)c1
3. CCN(CC)S(=O)(=O)c1cc(Nc2nccc(-c3ccnc(-c4ccc(NC(=O)NC)cc4)c3)n2)ccc1C
4. c1ccc(Nc2nccc(-c3ccnc(N4CCOCC4)c3)n2)cc1

1. < 4.70
2. < 4.70
3. 7.06
4. < 5.40

###

Please provide measured Ratio IC50 for the entries that follow.
Organism: Homo sapiens
assay method text: Selectivity ratio of IC50 for mTOR to IC50 for human recombinant SMG1

• Clc1cccc(Nc2nccc(-c3ccnc(N4CCOCC4)c3)n2)c1 = > 71
• CNC(=O)Nc1ccc(-c2cc(-c3ccnc(Nc4ccc(Cl)c(S(=O)(=O)NC)c4)n3)ccn2)cc1 = > 154

Here's the next entry for you.
Assign Ratio IC50 to the following record: CNC(=O)Nc1ccc(-c2cc(-c3ccnc(Nc4ccc(C)c(S(N)(=O)=O)c4)n3)ccn2)cc1
> 320

###

Species: Homo sapiens
assay method text: Selectivity ratio of IC50 for mTOR to IC50 for human recombinant SMG1
Please provide measured Ratio IC50 for the entries that follow.

• Clc1ccc(Nc2nccc(-c3ccnc(N4CCOCC4)c3)n2)cc1 = > 19
• CNC(=O)Nc1ccc(-c2cc(-c3ccnc(Nc4ccc(C)c(S(=O)(=O)N(C)C)c4)n3)ccn2)cc1 = > 900
• N#Cc1cccc(Nc2nccc(-c3ccnc(N4CCOCC4)c3)n2)c1 = > 50

Go through the list and state Ratio IC50 for each entry.
1. CNC(=O)Nc1ccc(-c2cc(-c3ccnc(Nc4ccc(Cl)c(S(=O)(=O)N(C)C)c4)n3)ccn2)cc1
2. CNC(=O)Nc1ccc(-c2cc(-c3ccnc(Nc4cccc(S(N)(=O)=O)c4)n3)ccn2)cc1
3. Cc1cccc(Nc2nccc(-c3ccnc(N4CCOCC4)c3)n2)c1
4. NS(=O)(=O)c1ccc(Nc2nccc(-c3ccnc(N4CCOCC4)c3)n2)cc1
5. CNC(=O)Nc1ccc(-c2cc(-c3ccnc(Nc4ccc(C)c(S(=O)(=O)NC)c4)n3)ccn2)cc1

> 244
> 360
> 61
> 54
> 350

Go through the list and state Ratio IC50 for each entry.
1. c1ccc(Nc2nccc(-c3ccnc(N4CCOCC4)c3)n2)cc1
2. CNC(=O)Nc1ccc(-c2cc(-c3ccnc(Nc4cccc(S(=O)(=O)NC)c4)n3)ccn2)cc1

["> 3", "> 150"]
